Origin of measurements: patent US20210145976A1

- measurement target: human serum albumin (human) (UniProt P02768)
- Sequence (P02768 25-609 limits assumed): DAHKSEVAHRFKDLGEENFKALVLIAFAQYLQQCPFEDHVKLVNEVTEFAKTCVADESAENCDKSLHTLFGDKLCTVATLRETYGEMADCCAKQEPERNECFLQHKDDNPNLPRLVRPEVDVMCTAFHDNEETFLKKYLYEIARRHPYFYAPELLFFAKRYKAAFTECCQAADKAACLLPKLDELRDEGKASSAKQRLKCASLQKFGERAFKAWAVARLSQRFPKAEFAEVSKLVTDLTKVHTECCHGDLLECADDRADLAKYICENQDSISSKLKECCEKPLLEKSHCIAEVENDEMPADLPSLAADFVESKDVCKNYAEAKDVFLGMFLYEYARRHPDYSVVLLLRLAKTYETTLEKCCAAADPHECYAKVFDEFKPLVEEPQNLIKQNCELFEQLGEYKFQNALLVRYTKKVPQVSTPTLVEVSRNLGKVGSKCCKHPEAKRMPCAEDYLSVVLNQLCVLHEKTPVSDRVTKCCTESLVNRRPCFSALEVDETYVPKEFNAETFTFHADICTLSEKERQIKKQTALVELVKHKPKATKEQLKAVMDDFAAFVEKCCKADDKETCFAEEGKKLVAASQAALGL
- assay comment: screening ELISA
assay readout: HSA
Give bare numbers.

For SEQ ID NO 308 (designed binder) MLPAPKNLVVSEVTEDSARLSWQGVARAFDSFLITYREQIFAGEVIVLTVPGSERSYDLTGLKPGTEYPVWIQGVKGGSPSAPLSAISTT the binder record lists HSA as 12300

// input: 3 binders below; output: HSA for each
1. SEQ ID NO 174 (designed binder) MLPAPKNLVVSRVTEDSARLSWTAPDAAFDSFFIGYLEPQPPGEAIVLTVPGSERSYDLTGLKPGTEYKVVIQGVKGGTPSEPLSAIFTT
2. SEQ ID NO 111 (designed binder) MLPAPKNLVVSRVTEDSARLSWTAPDAAFDSFWIYYYESVGTGEAIVLTVPGSERSYDLTGLKPGTEYFVDISGVKVGTYSLPLSAIFTT
3. SEQ ID NO 156 (designed binder) MLPAPKNLVVSRVTEDSARLSWTAPDAAFDSFAIEYFENLGIGEAIVLTVPGSERSYDLTGLKPGTEYVVNIYGVKGGWLSSPLSAIFTT

**A:**
[2200, 7450, 5000]
